Target or system Coagulation factor X (Homo sapiens); metric IC50; compiled from varied reports.
Give the value in µM but do not write µM after it.

>>> result("CCc1nn(-c2ccc(NC(=O)c3cc(C(F)(F)F)nn3-c3cccc(C(N)=O)c3)cc2)c(=N)s1")
0.092
>>> result("N=C(N)c1ccc(CNC(=O)Cn2c(=O)c(NS(=O)(=O)c3ccccc3)cc3ccccc32)cc1")
23.1
>>> result("Cc1ncc(CNc2cccc(-c3ccccc3S(N)(=O)=O)c2)c(CO)c1O")
326

As a next step, examine the compound that follows.
Entry CC(=N)N1CCC(Oc2ccc3c(c2)/C(=C/C(=O)O)C(=O)N3Cc2ccc3ccc(C(=N)N)cc3c2)CC1 : reported IC50 = ?
0.0174

----------
Target or system Coagulation factor X (Homo sapiens, UniProt P00742); metric IC50; compiled from varied reports.
Criterion: IC50 strictly under 6 nM. Met: Satisfied. Not met: Not satisfied.

Solved cases (4 shown):
>>> class_label("CC(C)Nc1ncc(-c2cc(N)cc(S(=O)(=O)O)c2)n(CC(=O)NCc2ccc(C(=N)N)cc2)c1=O")
"Not satisfied"
>>> class_label("CCC(C)(C)Nc1nc(Cl)c(-c2cccc(N)c2)n(CC(=O)NCc2ccc(C(=N)N)cc2)c1=O")
"Not satisfied"
>>> class_label("N=C(N)NCCCNC(=O)c1cc(NS(=O)(=O)Cc2ccccc2)ccc1Sc1ccccc1")
"Not satisfied"
>>> class_label("N=C(N)c1ccc2ccc(Cn3c(=O)ccc4cc(OC5CCNCC5)ccc43)cc2c1")
"Not satisfied"

Lab note: IC50 threshold 6 nM. Does this compound come in strictly under it? CC(C)Nc1ncc(-c2cc(N)cc(NC(=O)c3ccccc3)c2)n(CC(=O)NCc2ccc(C(=N)N)cc2)c1=O
Not satisfied

CC(C)Nc1ncc(-c2cc(N)cc(C(=O)NCc3cccnc3)c2)n(CC(=O)NCc2ccc(C(=N)N)cc2)c1=O ?
Not satisfied

N=C(N)c1cc2ccc(OC(=O)c3ccco3)cc2s1 ?
Satisfied

O=C(Nc1ccc(Cl)cn1)c1nccnc1C(=O)Nc1ccc(N2CCCC(O)C2=O)cc1F (stereo not drawn) ?
Satisfied

CN1CC23CN(S(=O)(=O)c4ccc5cc(Cl)ccc5c4)CC(=O)N2CC2(CCN(C4=NCCO4)CC2)N3C1=O (single isomer, unassigned; (-)) ?
Satisfied

N=C(N)N1CCC(CNC(=O)CN2CCCC[C@H](NS(=O)(=O)c3ccc4c(c3)CCO4)C2=O)CC1 ?
Not satisfied

O=C(O)COCCN(C(=O)c1ccc(Cl)s1)c1ccc(N2C[C@H](CNC(=O)c3ccc(Cl)s3)OC2=O)cc1 ?
Not satisfied

O=C(C1CCN(c2ccncc2)CC1)N1CCN(S(=O)(=O)/C=C/c2ccc(Cl)cc2)CC1 ?
Not satisfied

N=C(N)N1CCC(CNC(=O)CN2CCCC[C@H](NS(=O)(=O)c3ccc4ccccc4c3)C2=O)CC1 ?
Not satisfied

----------
Target or system Coagulation factor X (Homo sapiens, UniProt P00742); metric pIC50; compiled from varied reports.
pIC50: −log10 of the molar value.

Recorded pIC50, per entry:
>>> result("COCC12CN(S(=O)(=O)C=Cc3ccc(Cl)s3)CC(=O)N1CC1(CCN(c3ccncc3)CC1)O2 (stereo not shown)")
8.74
>>> result("COC(=O)c1cc(N)cc(-c2cnc(NC(C)C)c(=O)n2CC(=O)NCc2ccc(C(=N)N)c(O)c2)c1")
"< 4.52"
>>> result("Cc1ncc(CNc2ccc(-c3ccccc3S(N)(=O)=O)cc2)c(CO)c1O")
"< 3.00"

Entry NCCCCCNC(=O)Cn1c(=O)c(NS(=O)(=O)Cc2ccccc2)cc2ccccc21 : reported pIC50 = ?
< 4.52

----------
Target or system Coagulation factor X (Homo sapiens); metric pIC50; compiled from varied reports.
Scale note: pIC50 = -log10(concentration in M).

Recorded pIC50, per entry:
>>> result("Cc1cc(NC(=O)Nc2ccncc2NC(=O)Nc2ccc(Cl)cc2)ccc1N1CCOCC1=O")
6.38
>>> result("N=C(N)c1cn(-c2ccccc2[N+](=O)[O-])c2ccccc12")
3.84
>>> result("Cc1cc(-n2cc(CNC(=O)c3ccc(Cl)s3)c(-c3ccccc3)n2)ccc1N1CCOCC1=O")
9.15
>>> result("CC(C)Nc1ccc(-c2csc3ccccc23)c(CC(=O)NCc2ccc(C(=N)N)cc2)[n+]1[O-]")
4.68

As a next step, examine the compound that follows.
For the record CCOC(=O)C1CN(S(=O)(=O)c2ccc3cc(Cl)ccc3c2)CCN1C(=O)C1CCN(c2ccncc2)CC1 (centres unmarked) , what value of pIC50 is listed for Coagulation factor X (Homo sapiens)?
8.70

----------
Target or system Coagulation factor X (Homo sapiens, UniProt P00742); metric IC50; compiled from varied reports.
Give the value in µM but do not write µM after it.

>>> result("CCNCC(=O)N(C)c1ccc(NC(=O)[C@H]2C[C@@H](O)CN2C(=O)Nc2ccc(Cl)cc2)cc1")
0.017
>>> result("CCCN(Cc1cccc(C(=N)N)c1)C(=O)Cc1ccc(-c2ccccc2S(N)(=O)=O)cc1")
2
>>> result("CS(=O)(=O)CCC(NC(=O)Nc1ccc(Cl)cc1)C(=O)Nc1ccc(-n2ccccc2=O)cc1 (stereo not shown)")
0.028
>>> result("N=C(N)c1cccc(-c2ccc(Cn3c(=O)ccc4cc(OC5CCNCC5)ccc43)cc2)c1")
4.94
>>> result("N=C(N)c1cc2cc(OC(=O)c3cccs3)ccc2o1")
0.88
>>> result("O=C(Nc1ccc(Cl)cc1)NN(C(=O)Nc1ccc(N2CCCCC2=O)cc1)c1ccccc1")
0.18

Entry N=C(N)c1ccc2ccc(CC(C(=O)O)N3CCc4cc(OC5CCN(C(=N)N)CC5)ccc4C3=O)cc2c1 (stereo not shown) : reported IC50 = ?
0.282

N=C(N)c1ccc2ccc(Cn3c(=O)n(CC(=O)O)c4ccc(OC5CCN(C(=N)N)CC5)cc43)cc2c1 ?
0.0671

----------
Target or system Coagulation factor X (Homo sapiens, UniProt P00742); metric pIC50; compiled from varied reports.
Scale note: pIC50 = -log10(concentration in M).

Recorded pIC50, per entry:
>>> result("O=C(Nc1ccc(N2CCOCC2=O)cc1)c1nccnc1C(=O)Nc1ccc(Cl)cn1")
9.80
>>> result("COC(=O)c1ccc(-c2cccnc2)cc1-n1cc(C(=N)N)c2ccccc21")
5.02
>>> result("CC(=N)N1CCC(Oc2ccc3c(c2)C(C)(C)C(=O)N3Cc2ccc3ccc(C(=N)N)cc3c2)CC1")
7.40
>>> result("N=C(N)NCCC[C@H](NC(=O)Cn1c(=O)c(NS(=O)(=O)Cc2ccccc2)cc2ccccc21)C(=O)c1nccs1")
7.15
>>> result("CC(=N)N1CCC(Oc2ccc3c(c2)n(Cc2ccc4ccc(C(=N)N)cc4c2)c(=O)n3C)CC1")
7.57

Entry CC(C)Nc1nc(Cl)c(-c2cccc(N)c2)n(CC(=O)NNc2ccc(C(=N)N)cc2)c1=O : reported pIC50 = ?
4.19

Nc1nccc2ccc(OC(C(=O)Nc3ccc(N4CCCCC4=O)cc3)c3ccccc3)cc12 (stereo not drawn) ?
6.46

N=C(N)c1cccc(O[C@H]2CO[C@H]3[C@@H]2OC[C@H]3Oc2cccc(C(=N)N)c2)c1 ?
5.52

CC1(C)C(=O)N(Cc2ccc3ccc(C(=N)N)cc3c2)c2ccc(OC3CCN(C(=N)N)CC3)cc21 ?
7.14

N=C(N)c1cccc(CC(C(=O)O)N2CCc3cc(OC4CCN(C(=N)N)CC4)ccc3C2=O)c1 (stereo not drawn) ?
6.10

CC(=N)N1CCC(Oc2ccc3c(c2)n(Cc2ccc4ccc(C(=N)N)cc4c2)c(=O)n3CC(=O)OCC(C)C)CC1 ?
7.97

O=C1CN(S(=O)(=O)c2ccc3cc(Cl)ccc3c2)CC2NC3(CCN(c4ccncc4)CC3)CN12 (stereo not drawn) ?
8.24

O=C1CN(S(=O)(=O)C=Cc2ccc(Cl)s2)CC2NC3(CCN(c4ccncc4)CC3)CN12 (stereo not drawn) ?
8.28

----------
Target or system Coagulation factor X (Homo sapiens); metric IC50; compiled from varied reports.
Give the value in µM but do not write µM after it.

Recorded IC50, per entry:
>>> result("COC(=O)c1ccc(-c2cccc(O)c2)cc1-n1cc(C(=N)N)c2ccccc21")
15.2
>>> result("Cc1ncc(CNC(=O)c2ccc(-c3ccccc3S(=O)(=O)NC(C)(C)C)cc2)c(CO)c1O")
362
>>> result("NC(=O)c1cccc(-n2nc(C(F)(F)F)cc2C(=O)Nc2ccc(N3CCCC3=S)c(Cl)c2)c1")
0.33

As a next step, examine the molecule that follows.
Entry CC(C)C[C@H](NC(=O)c1ccc(Cl)s1)C(=O)Nc1ccc(N2CCCCC2=N)cc1 : reported IC50 = ?
0.26

----------
Target or system Coagulation factor X (Homo sapiens); metric pIC50; compiled from varied reports.
Scale note: pIC50 = -log10(concentration in M).

Recorded pIC50, per entry:
>>> result("N=C(N)c1cccc(OC(C(=O)Nc2ccc(N3CCCC3=O)cc2)c2ccccc2)c1 (stereo not shown)")
7.19
>>> result("Cc1cc(NC(=O)C(Nc2cccc(CN)c2)c2ccccc2Cl)ccc1N1CCCC1=NCCN(C)C (stereo not shown)")
7.18

Entry C[C@@H](CNC(=O)Cn1cc(C(=N)N)c2ccccc21)c1ccccc1 : reported pIC50 = ?
3.55

Cc1ncc(CNC(=O)c2ccc(-c3ccccc3S(N)(=O)=O)cc2)c(CO)c1OCc1cccc(C(=N)N)c1 ?
5.30
